Source listed as the Immune Epitope Database (IEDB).

system: HLA-A*68:01
test_method_notes: IEDB peptide-MHC binding, purified MHC/competitive/radioactivity; filed as Kd, often an IC50 or EC50 that approximates it; bounds were set here for any values at or beyond the usual limits of such assays
condition_parameters: source organism: Vaccinia virus WR
quantity_name: Kd (µM)

| item_sequence | system | quantity_name | units_of_measure | result_qualifier | value_measured |
| --- | --- | --- | --- | --- | --- |
| CYLDTNIKM | HLA-A*68:01 | Kd | µM | ≥ | 25.8 |
| AIEKDRLDK | HLA-A*68:01 | Kd | µM | ≥ | 77.7 |
| VIILAALFMY | HLA-A*68:01 | Kd | µM | ≥ | 51.8 |
| KTKISVEKIK | HLA-A*68:01 | Kd | µM | ≥ | 24.7 |
| FISDNKKEY | HLA-A*68:01 | Kd | µM | = | 7.07 |
| GFEARIVDK | HLA-A*68:01 | Kd | µM | = | 16.3 |
| QTQTYNIGK | HLA-A*68:01 | Kd | µM | = | 0.00883 |
| DIVNGKECCY | HLA-A*68:01 | Kd | µM | ≥ | 70.2 |
| CLLAISAVY | HLA-A*68:01 | Kd | µM | = | 0.16 |
| LSSKGLACY | HLA-A*68:01 | Kd | µM | = | 8.34 |
| LLHCVTESYK | HLA-A*68:01 | Kd | µM | = | 0.0236 |
| IVPEFAKQY | HLA-A*68:01 | Kd | µM | = | 9.12 |

====

system: HLA-A*33:01
test_method_notes: IEDB peptide-MHC binding, purified MHC/competitive/radioactivity; filed as Kd, often an IC50 or EC50 that approximates it; bounds were set here for any values at or beyond the usual limits of such assays
condition_parameters: source organism: Vaccinia virus WR
Below: a set of entries, each annotated with reported Kd.
quantity_name: Kd

| item_sequence | system | quantity_name | value_measured |
| --- | --- | --- | --- |
| FTSTNDKIK | HLA-A*33:01 | Kd | ≥ 77.7 µM |
| EARIVDKFGK | HLA-A*33:01 | Kd | ≥ 20.5 µM |
| DIVNNFITK | HLA-A*33:01 | Kd | ≥ 26.8 µM |
| KLSSIKSKSR | HLA-A*33:01 | Kd | ≥ 27.7 µM |
| NLFSKNILKY | HLA-A*33:01 | Kd | ≥ 70 µM |
| IVTDLENRLK | HLA-A*33:01 | Kd | ≥ 26.7 µM |
| TAIKEVVMAY | HLA-A*33:01 | Kd | ≥ 21.4 µM |

====

system: HLA-A*02:02
test_method_notes: IEDB peptide-MHC binding, purified MHC/competitive/radioactivity; filed as Kd, often an IC50 or EC50 that approximates it; bounds were set here for any values at or beyond the usual limits of such assays
condition_parameters: source organism: Vaccinia virus WR
pKd: −log10 of the molar value.

| item_sequence | result_qualifier | pKd |
| --- | --- | --- |
| RVNDLNRMPT | = | 5.87 |
| LAELLEMKYA | = | 6.00 |
| GIADIRDKYM | = | 9.16 |
| IMSIGFEARI | = | 6.15 |
| DVDIPTFNSL | = | 5.74 |
| VLKAMHDKKI | ≤ | 4.31 |
| QLMYDIINSV | = | 8.73 |
| SIPISELSRL | = | 6.60 |
| YIMRVMANNV | = | 7.64 |
| SVDEEGCGPL | = | 4.83 |
| NITTLLNETA | = | 6.66 |
| VMHINSPFKV | = | 7.22 |
| RVNHAKYMVT | ≤ | 4.47 |
| PTILATLNTL | = | 6.43 |
| PASISSVLT | = | 5.86 |
| EVMPEKRNVV | ≤ | 4.69 |
| VIDRLPSET | = | 5.15 |
| IASILSLETV | = | 6.63 |
| TAIRAGYSI | = | 4.84 |
| FANVISKIYT | = | 5.11 |
| CLKNEGVSGL | = | 6.90 |
| YIYGIPLSL | = | 6.34 |
| KLYIALCKVT | = | 5.15 |
| ILYYGANGST | = | 6.47 |
| FMEEEIKAEM | = | 5.99 |
| LIQYRQQLEL | ≤ | 4.48 |
| TTPLISFFGL | ≤ | 5.30 |
| YVKNGTKGKL | = | 5.24 |
| RQQLEDIFM | = | 5.24 |

====

Below: a set of entries, each annotated with reported Kd.
system: HLA-A*11:01
test_method_notes: IEDB peptide-MHC binding, purified MHC/competitive/radioactivity; filed as Kd, often an IC50 or EC50 that approximates it; bounds were set here for any values at or beyond the usual limits of such assays
condition_parameters: source organism: Vaccinia virus WR
quantity_name: Kd (nM)

| item_sequence | units_of_measure | result_qualifier | value_measured |
| --- | --- | --- | --- |
| CLEWLRAKR | nM | ≥ | 49200 |
| DIVNGKECCY | nM | ≥ | 69800 |
| WIKDIMTSTR | nM | ≥ | 21200 |
| FISDNKKEY | nM | ≥ | 77900 |
| NSCSIGNVTR | nM | = | 890 |
| AIEKDRLDK | nM | = | 1120 |
| FLELKRGIY | nM | = | 10700 |
| LTQIFEVYWY | nM | = | 348 |
| EACYIYKSGK | nM | = | 1010 |
| RLLHCVTESY | nM | = | 40.2 |
| GFEARIVDK | nM | = | 9030 |
| NLFSKNILKY | nM | = | 16300 |
| ITPTIEDDK | nM | = | 6560 |
| FIKYVNGWVK | nM | = | 1.56 |
| ILAEYIRHR | nM | = | 1450 |
| VLFVKKMLPK | nM | = | 12 |
| STTDAEACY | nM | = | 432 |
